# Test system: Lassa Virus
# Measurement protocol: microbe, parasite or virus in culture
# Assay type: cell-based
# Condition summary: Mammarenavirus lassaense, Huh-7, read-out: Lassa Virus EC50
Measurement name: EC50

>>> print(df.to_string())
                                   compound  test_value
0  COc1nc(N)ncc1-c1cn(COCCO)cn1 [Compound 1]     > 50 µM
1  CCC(CC)OC(=O)[C@@H](C)N[P@](=O)(OCCOCn1cnc(-c2cnc(N)nc2OC)c1)Oc1ccccc1 [Compound 3]     > 50 µM

----------
# Tested on: EBOV (Makona)
# Measurement protocol: microbe, parasite or virus in culture
# Format: cell-based, Ebola virus
# Condition summary: Zaire ebolavirus, HeLa, read-out: EC50 EBOV in Hela cells (FIGS. 3-5)
pEC50: −log10 of the molar value.
Measurement name: pEC50

                                smiles_code            tgt  test_value
0  CCC(CC)OC(=O)[C@@H](C)N[P@](=O)(OCCOCn1cnc(-c2cnc(N)nc2OC)c1)Oc1ccccc1  EBOV (Makona)        4.54

----------
Listing of recorded EC50 by entry.
# Tested on: recombinant reporter EBOV
# Measurement protocol: microbe, parasite or virus in culture
# Type: cell-based, Ebola virus
# Condition summary: Zaire ebolavirus, Huh-7, read-out: EC50 against EBOV in Huh7 cells
Measurement name: EC50 (µM)

>>> print(df.to_string())
                                smiles_code  measurement_name  test_value
0  CCC(CC)OC(=O)[C@@H](C)N[P@](=O)(OCCOCn1cnc(-c2cnc(N)nc2OC)c1)Oc1ccccc1              EC50        27.2
1              COc1nc(N)ncc1-c1cn(COCCO)cn1              EC50         2.2

----------
# Tgt: UniProtKB O43148
# Sequence (O43148 whole entry): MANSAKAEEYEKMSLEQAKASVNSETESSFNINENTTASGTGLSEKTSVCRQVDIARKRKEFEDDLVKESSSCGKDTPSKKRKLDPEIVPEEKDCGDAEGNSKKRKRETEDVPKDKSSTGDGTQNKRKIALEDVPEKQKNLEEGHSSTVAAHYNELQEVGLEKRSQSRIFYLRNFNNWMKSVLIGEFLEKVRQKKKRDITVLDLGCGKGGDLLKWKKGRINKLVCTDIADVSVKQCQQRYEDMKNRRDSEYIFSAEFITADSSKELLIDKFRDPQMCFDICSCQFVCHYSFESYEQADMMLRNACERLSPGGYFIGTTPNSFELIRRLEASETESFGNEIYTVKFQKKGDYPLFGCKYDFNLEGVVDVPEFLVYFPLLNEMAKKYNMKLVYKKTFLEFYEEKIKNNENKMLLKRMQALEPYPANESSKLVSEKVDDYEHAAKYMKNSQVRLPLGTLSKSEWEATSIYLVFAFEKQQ
pIC50: −log10 of the molar value.
Measurement name: pIC50

                                   compound  test_value
0  COc1nc(N)ncc1-c1cn(COCCOP(=O)(O)OP(=O)(O)OP(=O)(O)O)cn1 [Compound 2MR04]       ~4.31

----------
Listing of recorded CC50 by entry.
# Test system: HeLa cells
# Condition summary: human
Measurement name: CC50

In [3]: df
Out[3]:
                                   molecule  measurement_name  test_value
0  COc1nc(N)ncc1-c1cn(COCCO)cn1 [Compound 1]              CC50    > 100 µM
1  COc1nc(N)ncc1-c1cn(COCCOC(C)=O)cn1 [Compound 2]              CC50    > 100 µM
2  CCC(CC)OC(=O)[C@@H](C)N[P@](=O)(OCCOCn1cnc(-c2cnc(N)nc2OC)c1)Oc1ccccc1 [Compound 3]              CC50    > 100 µM

----------
Listing of recorded pEC50 by entry.
# System: recombinant reporter EBOV
# Measurement protocol: microbe, parasite or virus in culture
# Type: cell-based, Ebola virus
# Condition summary: Zaire ebolavirus, Huh-7, read-out: EBOV EC50
pEC50: −log10 of the molar value.
Measurement name: pEC50

                                smiles_code  measurement_name  test_value
0              COc1nc(N)ncc1-c1cn(COCCO)cn1             pEC50        5.66
1  CCC(CC)OC(=O)[C@@H](C)N[P@](=O)(OCCOCn1cnc(-c2cnc(N)nc2OC)c1)Oc1ccccc1             pEC50        4.57
